The values you see were collected from paper PMC8119466.

Molecular target: recombinant PRL-3 (Homo sapiens)
Construct: 6xHis (N, cleaved yes); made in house; host or cells: E. coli One Shot BL21 Star
Sequence (O75365 whole entry): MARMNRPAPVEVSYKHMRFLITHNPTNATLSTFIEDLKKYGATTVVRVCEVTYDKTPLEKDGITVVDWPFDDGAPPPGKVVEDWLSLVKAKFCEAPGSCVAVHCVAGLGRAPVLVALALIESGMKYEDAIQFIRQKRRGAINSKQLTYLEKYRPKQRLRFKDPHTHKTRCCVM
Assay: In vitro phosphatase assay (DiFMUP hydrolysis), PRL-3; further: test concentration or dose not given here
Type: biochemical
Settings: FDA-approved drug screen; compared to DMSO
Where a name gives a salt, the structure may show the parent alone.
Readout Type: % Phosphatase Activity (compared to DMSO) PRL-3 (%)
Field: numeric (%). Do not append units.

CCCNC(C)C(=O)Nc1c(C)csc1C(=O)OC (stereo not shown) [Articaine HCl] : 84
CCCN(CCC)CCc1cccc2c1CC(=O)N2 [Ropinirole HCl] : 78
CN(C)[C@@H]1C(O)=C(C(N)=O)C(=O)[C@@]2(O)C(O)=C3C(=O)c4c(O)cccc4[C@@](C)(O)[C@H]3[C@H](O)[C@@H]12 [Oxytetracycline Dihydrate] : 98

Please examine the following record next.
Task: Which % Phosphatase Activity (compared to DMSO) PRL-3 value is on record for CN(Cc1cnc2nc(N)nc(N)c2n1)c1ccc(C(=O)N[C@@H](CCC(=O)O)C(=O)O)cc1 [Methotrexate] ?
Output: 70
